- Tested System: human histamine H3R (Homo sapiens)
- Construct: expressed in transfected cells; host or cells: HEK-293 cells, stably expressing; membrane preparations
- Sequence (Q9Y5N1 whole entry): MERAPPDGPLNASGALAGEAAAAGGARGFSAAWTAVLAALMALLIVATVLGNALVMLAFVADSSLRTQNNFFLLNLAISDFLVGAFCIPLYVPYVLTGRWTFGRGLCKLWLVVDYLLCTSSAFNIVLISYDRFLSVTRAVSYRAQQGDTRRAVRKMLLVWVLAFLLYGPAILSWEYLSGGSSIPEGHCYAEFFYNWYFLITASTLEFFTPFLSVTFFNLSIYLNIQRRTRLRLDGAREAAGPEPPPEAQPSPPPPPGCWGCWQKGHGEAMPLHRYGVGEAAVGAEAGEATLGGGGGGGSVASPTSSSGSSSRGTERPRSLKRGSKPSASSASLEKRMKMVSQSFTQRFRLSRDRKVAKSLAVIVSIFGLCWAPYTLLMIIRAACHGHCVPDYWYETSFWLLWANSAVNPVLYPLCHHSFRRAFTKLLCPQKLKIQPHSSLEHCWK
- Procedure Text: Human histamine H3 radioligand displacement ([3H]Nα-methylhistamine)
- Format: binding
- Cond: radioligand used at 2 nM at human H3R
Test Readout: Kd
Write your answer as a measured quantity: the number, then the unit.

input: Provide the documented Kd with human histamine H3R (Homo sapiens) as the system for CNCCc1cnc[nH]1 [[^3H]N^α-methylhistamine, reference compound]
output: 3.08 nM

====

- Procedure Text: MTT cytotoxicity assay, HEK-293
- Format: cell-based
- Cond: human, HEK-293 cells, HEK-293, MTT, 0.1 to 100 μM
Test Readout: IC50 at 48 h

input: # get_value(readout='IC50 at 48 h', item= Clc1nc(N2CCC(N3CCCCC3)CC2)c2ncn(Cc3c(Cl)cccc3Cl)c2n1 [Compound 3h] )
output: > 30 µM

// data source = paper PMC9145483
